- MEASURED_ON: KRAS of NCI-H441 lung adenocarcinoma cells (KRAS G12V mutant) (human, UniProt P01116 1-186)
- METHOD_SUMMARY: cell-based or functional assay
RECORDED_METRIC: Normalized viability NCI-H441 4 days of exposure to 25 µM (%)

- BINDER: "Ac-KVVVGAVGKGSKVVVGAVGK-NH2 [04-015-N001]"
  ASSAY_RESULT: 23.3
- BINDER: "Ac-KVVVGAVKGSKVVVGAVK-NH2 [04-006-N001]"
  ASSAY_RESULT: 8.7
- BINDER: "Ac-KLSVFAIKGSKLSVFAIK-NH2 [04-004-N001]"
  ASSAY_RESULT: 6.1
- BINDER: "Ac-KVVVGAVGVGKGSKVVVGAVGVGK-NH2 [04-033-N001]"
  ASSAY_RESULT: 5.2
- BINDER: "Ac-KLVVVGAVKGSKLVVVGAVK-NH2 [04-014-N001]"
  ASSAY_RESULT: 9.1
